# system-tested: Sodium-dependent serotonin transporter (Homo sapiens, UniProt P31645)
# Sequence (P31645 whole entry): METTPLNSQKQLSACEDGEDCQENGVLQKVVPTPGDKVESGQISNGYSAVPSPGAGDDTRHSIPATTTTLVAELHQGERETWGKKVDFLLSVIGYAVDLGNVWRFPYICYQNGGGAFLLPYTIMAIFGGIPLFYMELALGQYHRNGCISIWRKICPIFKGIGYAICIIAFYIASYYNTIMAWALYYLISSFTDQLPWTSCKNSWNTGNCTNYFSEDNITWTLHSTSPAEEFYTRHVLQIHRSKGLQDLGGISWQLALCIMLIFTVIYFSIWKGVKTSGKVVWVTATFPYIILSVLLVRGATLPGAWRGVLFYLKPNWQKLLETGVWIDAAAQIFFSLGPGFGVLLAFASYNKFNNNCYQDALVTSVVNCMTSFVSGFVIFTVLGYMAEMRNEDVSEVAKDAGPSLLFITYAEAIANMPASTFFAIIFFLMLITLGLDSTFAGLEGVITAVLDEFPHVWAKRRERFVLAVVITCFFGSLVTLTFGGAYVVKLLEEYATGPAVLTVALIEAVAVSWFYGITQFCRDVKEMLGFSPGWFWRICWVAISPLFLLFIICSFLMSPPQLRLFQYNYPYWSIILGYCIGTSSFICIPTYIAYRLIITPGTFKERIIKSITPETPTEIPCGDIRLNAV
# test-details: Binding affinity to SERT (unknown origin)
# condition: read-out: Ki
Here the recorded pKi is given for each entry.
Interpret pKi as the negative base-10 log of the concentration measured in mol/L.

Record excerpt, results attached:
CN(C)CCN1C(=O)c2ccccc2CCc2ccccc21 = 4.91
CN(C)CCCN1C(=O)c2ccccc2/C=C\c2ccccc21 = 4.43

## Input # query: pKi | item CN(C)CCN1C(=O)c2ccccc2N(C)c2ccccc21 [DIBENZEPIN] | system: Sodium-dependent serotonin transporter (Homo sapiens, UniProt P31645)
## Output 4.96

## Input Write down the reported pKi of `CN(C)CCN1C(=O)c2ccccc2/C=C\c2ccccc21` , test system: Sodium-dependent serotonin transporter (Homo sapiens, UniProt P31645).
## Output 5.34

###

# system-tested: D(2) dopamine receptor (Homo sapiens, UniProt P14416)
# Sequence (P14416 whole entry): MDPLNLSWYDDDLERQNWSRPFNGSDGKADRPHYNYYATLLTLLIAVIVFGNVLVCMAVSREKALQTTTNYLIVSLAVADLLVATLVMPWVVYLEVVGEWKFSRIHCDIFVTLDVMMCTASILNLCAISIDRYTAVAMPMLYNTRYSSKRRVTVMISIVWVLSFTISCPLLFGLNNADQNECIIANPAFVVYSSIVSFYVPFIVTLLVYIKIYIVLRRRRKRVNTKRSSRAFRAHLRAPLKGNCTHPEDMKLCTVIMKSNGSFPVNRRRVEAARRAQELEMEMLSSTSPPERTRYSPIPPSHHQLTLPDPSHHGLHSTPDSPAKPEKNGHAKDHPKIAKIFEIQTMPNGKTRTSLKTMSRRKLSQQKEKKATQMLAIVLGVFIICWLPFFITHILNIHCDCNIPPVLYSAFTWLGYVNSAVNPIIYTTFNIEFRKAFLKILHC
# test-details: Binding affinity to D2 receptor (unknown origin)
Ki reference

Example results:
CN(C)CCN1C(=O)c2ccccc2N(C)c2ccccc21 [DIBENZEPIN] = 30.2 µM
CN(C)CCCN1C(=O)c2ccccc2/C=C\c2ccccc21 = 9 µM
CN(C)CCN1C(=O)c2ccccc2/C=C\c2ccccc21 = 11.6 µM
CN(C)CCN1C(=O)c2ccccc2N(C)C(=O)c2ccccc21 = 65.3 µM

## Input Entry `CN1CCN(CCCN2C(=O)c3ccccc3/C=C\c3ccccc32)CC1` has what Ki?
## Output 7.5 µM

## Input Endpoint output: Ki of `O=C1c2ccccc2/C=C\c2ccccc2N1CCCN1CCOCC1` . Value?
## Output 19.1 µM

###

# system-tested: UniProt P08908
# Sequence (P08908 whole entry): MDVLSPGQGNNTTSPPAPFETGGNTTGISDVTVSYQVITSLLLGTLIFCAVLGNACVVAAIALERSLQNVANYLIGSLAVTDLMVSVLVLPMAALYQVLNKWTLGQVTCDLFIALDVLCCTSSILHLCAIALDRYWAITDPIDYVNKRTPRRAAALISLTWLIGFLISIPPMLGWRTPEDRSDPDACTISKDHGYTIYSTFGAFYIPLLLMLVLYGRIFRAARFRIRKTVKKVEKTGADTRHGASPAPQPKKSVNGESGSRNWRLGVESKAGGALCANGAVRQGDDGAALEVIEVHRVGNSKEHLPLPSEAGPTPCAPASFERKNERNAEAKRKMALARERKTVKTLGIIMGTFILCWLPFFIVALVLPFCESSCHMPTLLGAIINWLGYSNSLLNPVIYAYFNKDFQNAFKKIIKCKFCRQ
Ki for assorted compounds
API: value field is a number in µM; no unit string.

CN(C)CCN1C(=O)c2ccccc2N(C)c2ccccc21 [DIBENZEPIN] = 2.5

Alright, here's another compound for you.
## Input Ki lookup needed for `CN(C)CCN1C(=O)c2ccccc2/C=C\c2ccccc21` , thanks.
## Output 77.2

###

Values of pKi reported for 5-hydroxytryptamine receptor 7 (Homo sapiens, UniProt P34969) appear below.
pKi: −log10 of the molar value.

## Input Give 5-hydroxytryptamine receptor 7 (Homo sapiens, UniProt P34969) pKi for `O=C1c2ccccc2/C=C\c2ccccc2N1CCCN1CCOCC1`
## Output < 4.00

## Input Form entry - test system: 5-hydroxytryptamine receptor 7 (Homo sapiens, UniProt P34969); read-out: pKi; compound: `CN(C)CCN1C(=O)c2ccccc2N(C)C(=O)c2ccccc21`
Sequence (P34969 whole entry): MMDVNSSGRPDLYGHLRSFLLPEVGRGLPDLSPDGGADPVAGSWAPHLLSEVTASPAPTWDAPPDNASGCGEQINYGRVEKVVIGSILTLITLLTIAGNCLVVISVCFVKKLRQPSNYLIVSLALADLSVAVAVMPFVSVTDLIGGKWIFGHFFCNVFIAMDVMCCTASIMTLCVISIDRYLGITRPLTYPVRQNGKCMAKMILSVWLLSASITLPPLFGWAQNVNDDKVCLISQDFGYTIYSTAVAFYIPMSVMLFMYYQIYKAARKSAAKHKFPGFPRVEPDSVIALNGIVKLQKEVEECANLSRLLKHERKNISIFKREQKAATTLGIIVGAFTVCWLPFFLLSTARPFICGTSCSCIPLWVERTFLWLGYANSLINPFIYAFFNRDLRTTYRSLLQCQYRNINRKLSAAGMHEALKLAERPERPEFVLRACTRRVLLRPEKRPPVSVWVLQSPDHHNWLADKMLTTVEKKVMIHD
## Output < 4.00

## Input API: value(readout=pKi, system=5-hydroxytryptamine receptor 7 (Homo sapiens, UniProt P34969)) for record `CN(C)CCCN1C(=O)c2ccccc2/C=C\c2ccccc21`
## Output < 4.00

## Input Given the entry CN(C)CCN1C(=O)c2ccccc2N(C)c2ccccc21 [DIBENZEPIN] , what pKi was observed with 5-hydroxytryptamine receptor 7 (Homo sapiens, UniProt P34969)?
## Output 4.91

###

# system-tested: UniProt P35367
# test-details: Binding affinity to H1 receptor (unknown origin)
# condition: read-out: Ki
experimental-readout: pKi
On this scale, pKi is minus log10 of a concentration expressed in M (mol/L).

CN(C)CCCN1C(=O)c2ccccc2CCc2ccccc21 = 6.09
CN(C)CCCN1C(=O)c2ccccc2/C=C\c2ccccc21 = 6.37
CN(C)CCN1C(=O)c2ccccc2/C=C\c2ccccc21 = 6.92
CN(C)CCN1C(=O)c2ccccc2N(C)c2ccccc21 [DIBENZEPIN] = 7.70

Below: the item to evaluate.
## Input So what does the record say about pKi for `CN(C)CCN1C(=O)c2ccccc2CCc2ccccc21` ?
## Output 6.54

###

pKi tested on UniProt:P50406: recorded values
Sequence (P50406 whole entry): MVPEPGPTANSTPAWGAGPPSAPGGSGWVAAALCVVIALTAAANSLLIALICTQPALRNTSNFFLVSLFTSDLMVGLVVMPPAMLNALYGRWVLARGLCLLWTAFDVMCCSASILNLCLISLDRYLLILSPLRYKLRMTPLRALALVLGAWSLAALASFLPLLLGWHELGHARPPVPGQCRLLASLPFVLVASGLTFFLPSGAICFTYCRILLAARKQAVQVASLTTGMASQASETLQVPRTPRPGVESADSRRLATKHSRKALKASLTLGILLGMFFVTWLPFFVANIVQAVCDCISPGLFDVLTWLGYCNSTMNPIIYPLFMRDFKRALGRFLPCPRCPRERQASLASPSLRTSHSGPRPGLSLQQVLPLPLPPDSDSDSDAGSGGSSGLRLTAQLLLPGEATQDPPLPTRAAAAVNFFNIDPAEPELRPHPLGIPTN
Hey, just a heads up that pKi is the negative log base 10 of the concentration in molar.

Examples from the recorded data:
CN(C)CCN1C(=O)c2ccccc2/C=C\c2ccccc21 = 4.70
O=C1c2ccccc2/C=C\c2ccccc2N1CCCN1CCOCC1 = 4.12
CN(C)CCN1C(=O)c2ccccc2N(C)c2ccccc21 [DIBENZEPIN] = 5.48

Next molecule, pKi to be filled in.
## Input Could you tell me which pKi is on file for `CN(C)CCN1C(=O)c2ccccc2N(C)C(=O)c2ccccc21` ?
## Output 4.39

###

The reader will find Ki measurements below, all made with 5-hydroxytryptamine receptor 2A (Homo sapiens).
Sequence (P28223 whole entry): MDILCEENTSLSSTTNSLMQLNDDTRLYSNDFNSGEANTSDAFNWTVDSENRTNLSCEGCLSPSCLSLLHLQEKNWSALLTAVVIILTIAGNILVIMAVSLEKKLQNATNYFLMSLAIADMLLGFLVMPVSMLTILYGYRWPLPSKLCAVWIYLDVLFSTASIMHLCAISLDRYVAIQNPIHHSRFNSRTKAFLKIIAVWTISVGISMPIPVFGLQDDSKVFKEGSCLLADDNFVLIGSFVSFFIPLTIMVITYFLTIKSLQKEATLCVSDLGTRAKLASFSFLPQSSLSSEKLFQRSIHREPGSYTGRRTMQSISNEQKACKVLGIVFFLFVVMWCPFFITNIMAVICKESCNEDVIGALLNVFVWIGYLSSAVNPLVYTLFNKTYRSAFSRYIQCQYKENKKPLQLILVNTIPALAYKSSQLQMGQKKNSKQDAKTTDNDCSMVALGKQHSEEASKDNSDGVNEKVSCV
Numbers only; they are read as µM.

Recorded results for 2 compounds are shown here.
CN(C)CCCN1C(=O)c2ccccc2/C=C\c2ccccc21 = 17.1
CN(C)CCN1C(=O)c2ccccc2N(C)c2ccccc21 [DIBENZEPIN] = 7.2

Now consider the entry below.
## Input Any idea what Ki came out for `CN(C)CCN1C(=O)c2ccccc2/C=C\c2ccccc21` on 5-hydroxytryptamine receptor 2A (Homo sapiens)?
## Output 74.4

###

# system-tested: Histamine H1 receptor (Homo sapiens)
# Sequence (P35367 whole entry): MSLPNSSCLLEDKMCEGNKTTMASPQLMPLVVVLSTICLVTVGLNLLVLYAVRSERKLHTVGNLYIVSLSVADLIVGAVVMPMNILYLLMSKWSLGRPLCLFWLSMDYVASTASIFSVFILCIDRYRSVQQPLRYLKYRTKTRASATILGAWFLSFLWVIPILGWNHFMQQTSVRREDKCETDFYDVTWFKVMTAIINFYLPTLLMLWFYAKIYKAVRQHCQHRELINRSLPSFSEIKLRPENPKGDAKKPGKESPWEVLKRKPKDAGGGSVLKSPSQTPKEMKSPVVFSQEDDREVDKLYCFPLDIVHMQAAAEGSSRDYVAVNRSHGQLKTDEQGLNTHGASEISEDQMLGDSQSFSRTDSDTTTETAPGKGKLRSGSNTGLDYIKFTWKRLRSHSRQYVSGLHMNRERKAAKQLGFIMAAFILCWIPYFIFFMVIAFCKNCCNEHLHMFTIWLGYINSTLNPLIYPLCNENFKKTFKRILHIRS
# test-details: Binding affinity to H1 receptor (unknown origin)
# condition: read-out: Ki
pKi: −log10 of the molar value.
experimental-readout: pKi

CN1CCN(CCCN2C(=O)c3ccccc3/C=C\c3ccccc32)CC1 = < 5.30
COc1cc2c(cc1OC)N(CCN(C)C)C(=O)c1ccccc1N(C)C2=O = < 5.00
CN(C)CCN1C(=O)c2cc(Cl)ccc2N(C)C(=O)c2cc3ccccc3cc21 = < 5.30

## Input Which measured pKi value corresponds to `CN(C)CCN1C(=O)c2ccccc2N(C)C(=O)c2ccccc21` ?
## Output < 5.00

## Input Requested read-out: pKi. Entry: `CN(C)CCCN1C(=O)c2ccccc2N(C)C(=O)c2ccccc21`
## Output < 5.00
